System: MM1.S
test: Synergistic cytotoxic activity against human MM1.S cells after 72 hrs in presence of 0.01 uM of (S)-(3-((2-(2-(1H-indol-3-yl)-2-oxoacetamido)-4-(tert-butylamino)-4-oxobutanamido)methyl)phenyl)boronic acid by celltitre-glo assay
Assay type: functional, cell-based
quantity: EC50 (nM)
One number for each entry, in nM.

For MM1.S, give the measured EC50 of the entry COC[C@H](NC(=O)[C@H](CCC(=O)NC(C)(C)C)NS(=O)(=O)c1ccc(C)cc1)C(=O)NCc1ccc(F)c2ccccc12
125

###

testedOn: Proteasome subunit beta type-8 (Homo sapiens)
Sequence (P28062 whole entry): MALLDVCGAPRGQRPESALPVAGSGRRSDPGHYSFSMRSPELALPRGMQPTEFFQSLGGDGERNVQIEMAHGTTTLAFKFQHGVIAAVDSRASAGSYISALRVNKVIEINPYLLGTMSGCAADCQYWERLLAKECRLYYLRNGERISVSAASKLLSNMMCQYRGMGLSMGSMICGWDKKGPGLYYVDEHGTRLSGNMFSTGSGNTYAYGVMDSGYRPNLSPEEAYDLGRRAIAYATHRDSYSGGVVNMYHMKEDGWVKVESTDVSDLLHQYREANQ
test: Inhibition of human 20s immunoproteasome beta-5i subunit
quantity: IC50 (µM)
Answers are plain numbers, in µM.

Name the value of IC50 reported for COC[C@H](NC(=O)C(=O)c1c[nH]c2ccccc12)C(=O)NCc1cccc(B(O)O)c1 when tested on Proteasome subunit beta type-8 (Homo sapiens).
45.2

State IC50 (Proteasome subunit beta type-8 (Homo sapiens)) of CC(C)(C)NC(=O)CC[C@H](NC(=O)C(=O)c1c[nH]c2ccccc12)C(=O)NCc1cccc(B(O)O)c1 .
11.3

For Proteasome subunit beta type-8 (Homo sapiens), give the measured IC50 of the entry CC(C)(C)NC(=O)C[C@H](NC(=O)Cc1c[nH]c2ccccc12)C(=O)NCc1cccc(B(O)O)c1
69.2

Could you now consider this next compound?
Report IC50 from Proteasome subunit beta type-8 (Homo sapiens) testing of CC(C)(C)NC(=O)C[C@H](NC(=O)c1cc(-c2ccccc2)ccn1)C(=O)NCc1cccc(B(O)O)c1
22.8

###

Tested on: HepG2
test: Cytotoxicity against human HepG2 cells after 72 hrs by celltitre-glo assay
Assay type: functional, cell-based
statedConditions: HepG2, 72 h
quantity: EC50 (µM)
Answers are plain numbers, in µM.

// worked examples, EC50 included
Report measured EC50; entry is CC(C)C[C@H](NC(=O)[C@H](Cc1ccccc1)NC(=O)c1cnccn1)B(O)O [BORTEZOMIB]
0.013

Given the compound CC(C)(C)NC(=O)CC[C@H](NC(=O)C(=O)c1c[nH]c2ccccc12)C(=O)NCc1cccc(B(O)O)c1 , write its reported EC50.
49.1

Others:
In one line, give reported EC50 of the entry CC(C)(C)NC(=O)C[C@H](NC(=O)C(=O)c1c[nH]c2ccccc12)C(=O)NCc1cccc(B(O)O)c1 .
3.2

###

testedOn: Proteasome Macropain subunit MB1 (Homo sapiens, UniProt P28074)
Sequence (P28074 whole entry): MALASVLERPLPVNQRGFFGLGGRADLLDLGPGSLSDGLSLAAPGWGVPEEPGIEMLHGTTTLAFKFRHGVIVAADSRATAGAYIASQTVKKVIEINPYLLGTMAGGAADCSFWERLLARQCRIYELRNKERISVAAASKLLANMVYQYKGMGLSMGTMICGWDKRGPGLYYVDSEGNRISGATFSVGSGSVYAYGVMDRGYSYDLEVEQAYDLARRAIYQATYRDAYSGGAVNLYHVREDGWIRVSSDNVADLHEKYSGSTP
test: Inhibition of human 20s constitutive proteasome beta-5c
Please go through the items and note down their IC50.

// solved cases for IC50 follow
Consider the compound Cc1ccc(S(=O)(=O)N[C@@H](CC(=O)NC(C)(C)C)C(=O)NCc2cccc(F)c2)cc1 . State its measured IC50.
> 100 µM

Query IC50 for CC(C)(C)NC(=O)C[C@H](NC(=O)c1cnccn1)C(=O)NCc1cccc(B(O)O)c1
> 100 µM

Name the recorded IC50 of the item Cc1ccc(S(=O)(=O)N[C@@H](CC(=O)NC(C)(C)C)C(=O)Nc2ccc(B(O)O)cc2)cc1 in your answer.
> 100 µM

State its IC50 for this compound: CC(C)(C)NC(=O)C[C@H](NC(=O)CN1CCOCC1)C(=O)NCc1cccc(B(O)O)c1
> 100 µM

Please look at this compound and report its IC50: CC(C)(C)NC(=O)C[C@H](NC(=O)c1cc(-c2ccccc2)ccn1)C(=O)NCc1cccc(B(O)O)c1
3.8 µM

Now consider a different compound.
Using known records, supply IC50 for Cc1ccc(S(=O)(=O)N[C@@H](CC(=O)NC(C)(C)C)C(=O)Nc2cccc(B(O)O)c2)cc1
> 100 µM
